Listing: pest or weed control at 5 µg/cm2, 5 µg/cm2 of selected compounds
- Tested on: Ixodes ricinus
- ASSAY_OVERVIEW: In vitro contact test with adult hard ticks (Ixodes ricinus)
- APPLIED_CONDITIONS: dose 5 μg/cm^2, 48 h, read-out: acaricidal activity
- Method: In Vitro Contact Tests with Adult Hard Ticks In vitro contact tests with ticks were conducted with adult males and females of Rhipicephalus sanguineus, Ixodes ricinus, or Dermacentor variabilis, or nymphs of Amblyomma americanum. For the coating of the test vials, the test substance was dissolved and diluted in acetone p.a. to the desired concentration. […]
Give the value, in units of %, as a plain number.

{"columns": ["COMPOUND", "TEST_RESULT"],
 "data": [
  ["O=C(Nc1cccc(C(=O)Nc2c(I)cc(C(F)(C(F)(F)F)C(F)(F)F)cc2[S+]([O-])C(F)(F)F)c1F)c1ccc(F)cc1 (stereo not shown)", 90],
  ["CN(C(=O)c1ccc(F)cc1)c1cccc(C(=O)Nc2c(Br)cc(C(F)(C(F)(F)F)C(F)(F)C(F)(F)F)cc2C(F)(F)F)c1F (stereo not shown)", 90],
  ["O=C(Nc1cccc(C(=O)Nc2c(I)cc(C(F)(C(F)(F)F)C(F)(F)F)cc2C(F)(F)F)c1F)c1ccc(C(F)(F)F)nc1", 90],
  ["O=C(Nc1cccc(C(=O)Nc2c(I)cc(C(F)(C(F)(F)F)C(F)(F)F)cc2C(F)(F)F)c1F)c1ccc(F)cc1", 90],
  ["O=C(Nc1cccc(C(=O)Nc2c(I)cc(C(F)(C(F)(F)F)C(F)(F)F)cc2OC(F)F)c1F)c1ccc(C(F)(F)F)nc1", 90],
  ["CN(C(=O)c1ccc(F)cc1)c1cccc(C(=O)Nc2c(I)cc(C(F)(C(F)(F)F)C(F)(F)F)cc2OC(F)(F)F)c1F", 90]
]}

Request: Look at this compound and give its reported pest or weed control at 5 µg/cm2, 5 µg/cm2. O=C(Nc1cccc(C(=O)Nc2c(I)cc(C(F)(C(F)(F)F)C(F)(F)F)cc2OC(F)(F)F)c1F)c1ccc(F)c(F)c1
Result: 90

Request: Look at this compound and give its reported pest or weed control at 5 µg/cm2, 5 µg/cm2. O=C(Nc1cccc(C(=O)Nc2c(I)cc(C(F)(C(F)(F)F)C(F)(F)C(F)(F)F)cc2C(F)(F)F)c1F)c1ccc(C(F)(F)F)nc1 (stereo not shown)
Result: 90

Request: Look at this compound and give its reported pest or weed control at 5 µg/cm2, 5 µg/cm2. O=C(Nc1cccc(C(=O)Nc2c(I)cc(C(F)(C(F)(F)F)C(F)(F)F)cc2OC(F)(F)F)c1F)c1ccc(C(F)(F)F)nc1
Result: 90

Request: Look at this compound and give its reported pest or weed control at 5 µg/cm2, 5 µg/cm2. CN(C(=O)c1ccc(F)cc1)c1cccc(C(=O)Nc2c(Br)cc(C(F)(C(F)(F)F)C(F)(F)C(F)(F)F)cc2OC(F)F)c1F (stereo not shown)
Result: 90

Request: Look at this compound and give its reported pest or weed control at 5 µg/cm2, 5 µg/cm2. CN(C(=O)c1ccc(F)cc1)c1cccc(C(=O)Nc2c(I)cc(C(F)(C(F)(F)F)C(F)(F)F)cc2C(F)(F)F)c1F
Result: 90

Request: Look at this compound and give its reported pest or weed control at 5 µg/cm2, 5 µg/cm2. CN(C(=O)c1ccc(F)cc1)c1cccc(C(=O)Nc2c(Br)cc(C(F)(C(F)(F)F)C(F)(F)F)cc2OC(F)F)c1F
Result: 90

Request: Look at this compound and give its reported pest or weed control at 5 µg/cm2, 5 µg/cm2. O=C(Nc1cccc(C(=O)Nc2c(I)cc(C(F)(C(F)(F)F)C(F)(F)C(F)(F)F)cc2C(F)(F)F)c1F)c1ccc(F)c(F)c1 (stereo not shown)
Result: 90
